System: 2102EP cells
Assay: XTT cell viability assay, 2102EP
Assay type: cell-based, human
Conditions: Homo sapiens, 48 h
# IC50 annotations
Response body: numeric value in nM, unit text excluded.

| compound | IC50 / nM |
| --- | --- |
| CN1CC[C@H](c2c(O)cc(O)c3c(=O)cc(-c4ccccc4Cl)oc23)[C@H](O)C1 [Flavo-Piridol, flavopiridol] | 39.9 |

Given CN(C)C/C=C/C(=O)Nc1ccc(C(=O)N2CCC[C@@H](Nc3ncc(Cl)c(-c4c[nH]c5ccccc45)n3)C2)cc1 [THZ531] , state its recorded IC50.
180

So what's the measured IC50 for this one? CC(C)(C)c1cnc(CSc2cnc(NC(=O)C3CCN(CC(=O)NCCOCCOCCOCCNc4cccc5c4C(=O)N(C4CCC(=O)NC4=O)C5=O)CC3)s2)o1 (stereo not drawn) [THAL-SNS-032]
39.5
